Numbers sourced from PubChem BioAssay (NCI).

Assay: NCI Yeast Anticancer Drug Screen. Data for the sgs1 mgt1 strain (AID 161);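 further: 0% = growth of cultures given vehicle only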
Details: S. cerevisiae sgs1 mgt1 strain, at 5.0 µM (retest, dose inferred, filed as 0.5), active compounds read high
This is part of a sample that, as a whole, favours compounds with a hit. Of some 79,000 tested, about 15% had one in any assay.
Reported growth inhibition values for a set of compounds
Supply the numeric figure in %, leaving out any unit text.

COC1/C=C/OC2(C)Oc3c(C)c(O)c4c(c3C2=O)C(=O)C=C(NC(=O)/C(C)=C\C=C\C(C)C2OC(C)(C)OC(C2C)C(C)C(OC(C)=O)C1C)C4=O (stereo unspecified) : -3
COc1ccc(Cc2ccc(O)cc2)cc1 : -9
CCOP(=O)(OCC)C(C)(CC)NC(=O)C(C(F)(F)F)C(F)(F)F (stereo unspecified) : 16
O=C1OC(c2ccc(O)cc2)(c2ccc(O)cc2)c2cccc3cccc1c23 : 17
O=C(NC(C(=O)O)c1ccccc1)OCc1ccccc1 (stereo unspecified) : -1
BrC(c1cccc2ccccc12)c1cccc2ccccc12 : 1
CC(=O)Nc1cc(C)ccc1C : 0
O=C1C(CN(Cc2ccccc2)Cc2ccccc2)CCCC1CN(Cc1ccccc1)Cc1ccccc1 (stereo unspecified) : 4

Field request: growth inhibition | item: CCN(CC)CCCn1c2cc(=O)c(=O)cc-2[nH]c2cc(C)ccc21 2

Looking for the measured growth inhibition of O=C(O)c1ccc(C(c2ccccc2)c2ccccc2)cc1 , can you help? 11

Which growth inhibition reading was recorded for the compound c1ccc2nc3c(ccc4ccccc43)cc2c1 ? -17

----------
Assay: NCI Yeast Anticancer Drug Screen. Data for the sgs1 mgt1 strain (AID 161);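 further: 0% = growth of cultures given vehicle only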
Settings: S. cerevisiae sgs1 mgt1 strain, at 50.0 µM (retest, dose inferred, filed as 5.0)
About 79,000 compounds went through this panel and 15% of them were active in at least one assay; those are over-represented in the sample as a whole. Active and inactive are the calls of the source. Cut-off read from the data, not from the text of the source: active = growth inhibition above about 70%; inactive = the rest.
Just give me one of these, please: t for active, f for inactive

Completed entries (count: 4):
Cc1cc(C)nc(NS(=O)(=O)c2ccc(Nc3c4ccccc4nc4c(C(=O)NCCCN(CCO)CCO)cccc34)cc2)n1 : f
O=C1OC(CN2CCOCC2)CN1/N=C/c1ccc([N+](=O)[O-])o1 (stereo not given) : t
CN(C)CCCN=c1c2ccccc2n(O)c2cccc([N+](=O)[O-])c12 : f
O=NC1C(Br)C2CC1C1C(Cl)C(Cl)CC21 (stereo not given) : f

In this assay, the call recorded for O=C(c1ccco1)N(C(=S)N1CCN(c2ccccn2)CC1)C1CCCCC1 was what? t

----------
growth inhibition listing for selected molecules.
Test: NCI Yeast Anticancer Drug Screen. Data for the cln2 rad14 strain (AID 165);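 further: 0% = growth equal to vehicle treated cultures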
Conditions: S. cerevisiae cln2 rad14 strain, at 5.0 µM (retest, dose inferred, filed as 0.5), active compounds read high
The panel holds about 79,000 compounds, 15% with a hit somewhere; the sample as a whole holds those more often.
Could you give me the number in %? Just the number is fine.

Give the measured growth inhibition of O=C(Nc1ccc(C(=O)O)c(O)c1)c1ccccc1 . -4

Please look up its growth inhibition: C=CC(=O)OCCOc1ccc(Cl)cc1Cl -1

Which growth inhibition value belongs to O=P(C(=S)NC1CC2C=CC1C2)(c1ccccc1)c1ccccc1 (stereo unspecified) ? 12

Could you share which growth inhibition value was measured for C[C@H](CCC(=O)O)[C@H]1CC[C@H]2[C@@H]3[C@H](O)C[C@@H]4C[C@H](O)CC[C@]4(C)[C@H]3CC[C@]12C ? 19

Item CCCCCC[C@H](C/C=C\CCCCCCCC(=O)OC)OC(C)=O has what recorded growth inhibition? -1

Would you mind telling me what growth inhibition value was observed for CCOC(=O)C(Cc1c[nH]c2cc([N+](=O)[O-])ccc12)NS(=O)(=O)c1ccc2ccccc2c1 (stereo unspecified) ? -17

Fill blank: measured growth inhibition of the molecule c1ccc(-c2cnc(-c3ccc(-c4ncc(-c5ccccc5)o4)cc3)o2)cc1 is ____. -11

Any idea what its growth inhibition is? The molecule is c1cc2c3c(c1)c1cc4c(cc1c[n+]3CC2)OCO4 13

Recorded growth inhibition for c1ccc2nc3c(ccc4ccccc43)cc2c1 , please? 5

----------
Assay: NCI Yeast Anticancer Drug Screen. Data for the bub3 strain (AID 167)
Conditions: S. cerevisiae bub3 mutant strain, at 5.0 µM (retest, dose inferred, filed as 0.5), active compounds read high
Compounds without any hit were thinned out: in the full panel of roughly 79,000, 15% have a hit.
# key: entry, value: growth inhibition
State the answer as a number, implicitly in %.

Take a look at these entries with their results.
O=C(CC(=O)CC(O)(c1ccccc1)c1ccccc1)CC(=O)c1ccccc1 : -8
CCCCCCCc1c(Cl)nc(Cl)nc1Cl : 4
CC(=O)Nc1c(Cl)c(Cl)c2c(c1Cl)Cc1cc(Cl)ccc1-2 : 99

Please give the measured growth inhibition for this compound: C=C1CC2(CC(c3ccccc3C)OC(c3ccccc3C)C2)OC1=O (stereo not given) 74

If you can, please state the reported growth inhibition value of Cc1cc2c(c(Br)c1O)Oc1c(cc(C)c(O)c1Br)C21OC(=O)c2ccccc21 . 52

Query (compound): CC(=O)Nc1nc([N+](=O)[O-])c(C(C)C)s1 ; field requested: growth inhibition -3

Fill blank: measured growth inhibition of the compound O=C(OC(=Nc1ccccc1)N(c1ccccc1)c1ccccc1)c1ccccc1 is ____. 17

State the recorded growth inhibition for this entry: Cc1cc(C)[nH]c(=O)n1 -4

Which growth inhibition value belongs to O=C1c2ccccc2C(=O)N1CC[P+](c1ccccc1)(c1ccccc1)c1ccccc1 ? 30

Which growth inhibition value belongs to CN(C)Cc1cc(CN(C)C)c(O)c(CN(C)C)c1 ? 14

Fill blank: measured growth inhibition of the compound OC(c1ccccc1)(c1ccccc1)c1ccccc1 (tested in a mixture with another compound) is ____. -7

----------
Assay: NCI Yeast Anticancer Drug Screen. Data for the sgs1 mgt1 strain (AID 161);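 further: 0% = growth of cultures given vehicle only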
Settings: S. cerevisiae sgs1 mgt1 strain, at 50.0 µM (retest, dose inferred, filed as 5.0), active compounds read high
Compounds without any hit were thinned out: in the full panel of roughly 79,000, 15% have a hit.
observation_type: growth inhibition (%)
Reply numerically in %, unit not repeated.

Known results for molecules:
O=C(NN1CCOC1=O)OCCCl : -7
COc1cc2c3c(c1)SCCC(=O)N3CCN2 : 15
O=C(O)COc1ccc(OCC(=O)O)cc1 : 1

Endpoint output: growth inhibition of CCCN(CCC)C(=S)N/N=C/c1ccccn1 . Value? 99

Recorded growth inhibition of COc1ccc(C2c3cc4c(cc3OC(NNC(N)=O)C2C)OCO4)cc1 (stereo not given) , please. 96

Entry NCC(=O)OCN1C(=O)C2C3C=CC(C2C1=O)C1C2C(=O)N(COC(=O)CN)C(=O)C2C31 (stereo not given) : reported growth inhibition = ? 45

What value of growth inhibition has been reported for the following molecule? CCN(CC)CCCn1c2cc(=O)c(=O)cc-2[nH]c2cc(C)ccc21 74

Which growth inhibition is listed for CC(=O)OCC(=O)[C@H]1CC[C@H]2[C@@H]3CC=C4C[C@@H](O)CC[C@]4(C)[C@H]3CC[C@]12C ? 94

Dear colleague, I am looking for the recorded growth inhibition of the following molecule: c1ccc2c(c1)[nH]c1c(N3CCOCC3)nnc(N3CCOCC3)c12 0

Would you mind telling me what growth inhibition value was observed for CC(=O)OCC1OC(n2c(C)c(C(C)=O)c(-c3ccco3)c(C#N)c2=S)C(OC(C)=O)C(OC(C)=O)C1OC(C)=O (stereo not given) ? 13

----------
Assay: NCI Yeast Anticancer Drug Screen. Data for the rad50 strain (AID 155);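 further: 0% = growth of vehicle-only cultures of the same strain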
Settings: S. cerevisiae rad50 strain growth inhibition; at 50.0 µM (retest, dose inferred, filed as 5.0); active compounds read high
This is part of a sample that, as a whole, favours compounds with a hit. Of some 79,000 tested, about 15% had one in any assay.
Outcome: satisfied for growth inhibition of at least 60%; not satisfied for anything lower.

O=C(/C=C/c1ccc(Cl)cc1)NC1C=Nc2ccc([N+](=O)[O-])cc2NC1=O (stereo not drawn) : satisfied

Has CC1(O)Cc2c(O)c3c(c(O)c2CC1O)C(=O)C=CC3=O (stereo not drawn) a recorded growth inhibition greater than or equal to 60%? not satisfied

Please check the record CN1C(c2ccccc2)CC(=NO)CC1c1ccccc1 (stereo not drawn) and state if its growth inhibition is at or above 60%. not satisfied

----------
Test: NCI Yeast Anticancer Drug Screen. Data for the cln2 rad14 strain (AID 165);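 further: 0% = growth equal to vehicle treated cultures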
Details: S. cerevisiae cln2 rad14 strain, at 5.0 µM (retest, dose inferred, filed as 0.5), active compounds read high
Protocol: Growth inhibition of yeast strains with defined genetic alterations is measured as a screen for potential anti-cancer activity. Selected strains with alterations in DNA damage repair or cell cycle control were exposed to compounds and growth inhibition was measured relative to vehicle treated controls. The strain used in this assay is cln2 rad14
The panel holds about 79,000 compounds, 15% with a hit somewhere; the sample as a whole holds those more often.
Examples of compounds with documented growth inhibition follow.
Your answer should be a plain number; it is taken to be in %.

// known answers, use as guide
CCN(CC)C(=S)Sc1nc2ccccc2s1 : -7
O=C1C(CN(Cc2ccccc2)Cc2ccccc2)CCCC1CN(Cc1ccccc1)Cc1ccccc1 (configuration not stated) : -20

Need growth inhibition of O=C(COc1ccc(Cl)cc1Cl)Nc1cccc(C(F)(F)F)c1 , thanks. -3

Request the reported growth inhibition associated with CCN1CCC(O)(/C=C/c2ccc(C)cc2)C(C(=O)/C=C/c2ccc(C)cc2)C1 (configuration not stated) 9

Bench note: what growth inhibition did Cn1c(N)nc(=O)c2[nH]cnc21 show? 2

Reported growth inhibition, compound Nc1nnc(/C=C/c2ccccc2)o1 : ____ 1

// growth inhibition lookup, key: CCOC(=O)c1c[nH]c2cc(C(F)(F)F)ccc2c1=O 9

Tell me the measured growth inhibition of Cc1c(C)c(CCl)c(C)c(C)c1CCl , please. 34
